Reported pIC50 values are given for each entry in this list.
- Test Target: 5'-nucleotidase (Homo sapiens, UniProt P21589)
- Sequence (P21589 whole entry): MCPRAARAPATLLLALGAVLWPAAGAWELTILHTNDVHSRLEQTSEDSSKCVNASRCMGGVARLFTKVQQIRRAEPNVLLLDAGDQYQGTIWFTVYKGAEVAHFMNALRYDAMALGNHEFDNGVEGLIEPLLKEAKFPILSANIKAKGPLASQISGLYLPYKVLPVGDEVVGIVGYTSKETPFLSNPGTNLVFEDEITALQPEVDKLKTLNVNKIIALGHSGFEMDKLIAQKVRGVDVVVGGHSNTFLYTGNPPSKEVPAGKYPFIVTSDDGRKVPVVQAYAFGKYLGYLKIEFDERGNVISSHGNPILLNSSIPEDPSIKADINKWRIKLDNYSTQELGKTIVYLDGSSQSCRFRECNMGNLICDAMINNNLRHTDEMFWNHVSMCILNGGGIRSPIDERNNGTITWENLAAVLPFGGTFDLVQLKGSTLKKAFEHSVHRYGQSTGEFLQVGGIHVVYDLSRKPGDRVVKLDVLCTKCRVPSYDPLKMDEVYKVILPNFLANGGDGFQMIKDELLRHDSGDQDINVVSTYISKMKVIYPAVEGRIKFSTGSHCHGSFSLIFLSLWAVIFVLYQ
- Method Notes: Inhibition of human Ecto-5'-nucleotidase transfected in COS7 cells preincubated for 10 mins followed by AMP addition measured after 10 mins
Scale explanation: pIC50 corresponds to minus log10 of a concentration expressed in moles per litre.

Consider the reported pIC50 for these compounds:
>  <Compound>
COC1Oc2c(Cl)cc(Cl)cc2C(=O)/C1=C\Nc1ccc(S(N)(=O)=O)cc1 (racemic)

>  <Test Target>
5'-nucleotidase (Homo sapiens, UniProt P21589)

>  <Reported Measurement>
5.53

$$$$
>  <Compound>
COC1Oc2ccccc2C(=O)/C1=C\Nc1cccc(S(N)(=O)=O)c1 (racemic)

>  <Test Target>
5'-nucleotidase (Homo sapiens, UniProt P21589)

>  <Reported Measurement>
6.42

$$$$
>  <Compound>
COC1Oc2ccc(Cl)cc2C(=O)/C1=C\Nc1ccccc1S(N)(=O)=O (racemic)

>  <Test Target>
5'-nucleotidase (Homo sapiens, UniProt P21589)

>  <Reported Measurement>
5.87

$$$$
>  <Compound>
COC1Oc2c(Cl)cc(Cl)cc2C(=O)/C1=C\Nc1ccccc1S(N)(=O)=O (racemic)

>  <Test Target>
5'-nucleotidase (Homo sapiens, UniProt P21589)

>  <Reported Measurement>
6.06

$$$$

Reading of pIC50 for CC(C)OC1Oc2ccccc2C(=O)/C1=C\Nc1cccc(S(N)(=O)=O)c1 (racemic) with 5'-nucleotidase (Homo sapiens, UniProt P21589): 6.54
